These measurements were taken from patent US20240166750A1.

# assayed-target: Recombinant human FcγRIIIa-V158 (human, UniProt P08637 17-208)
# Sequence (P08637 17-208 F176V): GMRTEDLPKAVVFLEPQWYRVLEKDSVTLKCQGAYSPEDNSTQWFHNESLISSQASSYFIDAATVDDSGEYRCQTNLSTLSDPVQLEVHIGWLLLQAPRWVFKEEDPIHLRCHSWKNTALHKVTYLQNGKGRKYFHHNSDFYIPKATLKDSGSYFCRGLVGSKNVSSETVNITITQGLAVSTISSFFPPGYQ
# assay-name: SPR; -kif
experimental-readout: pKd
A value of pKd is the negative decimal logarithm of a concentration given in moles per litre.

Enquiry: Requested read-out: pKd. Entry: human IgG1 antibody specific for protein 4, S239D/I332E + R292C/V302C, -Kif (antibody) ASTKGPSVFPLAPSSKSTSGGTAALGCLVKDYFPEPVTVSWNSGALTSGVHTFPAVLQSSGLYSLSSVVTVPSSSLGTQTYICNVNHKPSNTKVDKKVEPKSCDKTHTCPPCPAPELLGGPDVFLFPPKPKDTLMISRTPEVTCVVVDVSHEDPEVKFNWYVDGVEVHNAKTKPCEEQYNSTYRCVSVLTVLHQDWLNGKEYKCKVSNKALPAPEEKTISKAKGQPREPQVYTLPPSRDELTKNQVSLTCLVKGFYPSDIAVEWESNGQPENNYKTTPPVLDSDGSFFLYSKLTVDKSRWQQGNVFSCSVMHEALHNHYTQKSLSLSPGK
Return: 7.95
